target_or_system: T1, HLA-A*02:01 (human)
T1 construct: MHC class I monomer of the UV-ligand exchange assay; also called peptide-receptive MHC molecules; MHC class I
experiment_description: UV peptide-exchange ELISA
reported_endpoint: peptide exchange yield

Sample records with peptide exchange yield:
| binder | reported_endpoint | recorded_result |
| --- | --- | --- |
| VLMDGSVKL | peptide exchange yield | ≥ 75% |
| FMASHLDYL | peptide exchange yield | 50 to 75% |
| ILFPLRFTL | peptide exchange yield | 50 to 75% |

Moving on to the next binder.
GET /value?item= `SILETVATL` &field=peptide exchange yield returns 50 to 75%
